# protocol-details: Kinetic inhibition constant was evaluated by measuring the inhibition of the glycogen phosphorylase (GP)
Below, each entry is listed alongside its reported pKi.

Illustrative cases are given below, each with its answer.
NC(=O)C1OC(CO)C(O)C(O)C1O (stereo in doubt; 3) : 3.36
COC(=O)C1OC(CO)C(O)C(O)C1O (stereo not drawn) : 2.55

### Prompt Could you share which pKi value was measured for NC(=O)N[C@H]1O[C@H](CO)[C@@H](O)[C@H](O)[C@H]1O ?
### Response 3.85

### Prompt Could you share which pKi value was measured for O=C1CNC(=O)[C@@]2(N1)O[C@@H](CO)[C@@H](O)[C@H](O)[C@@H]2O ?
### Response 4.22

### Prompt Could you share which pKi value was measured for N#CC[C@@H]1O[C@H](CO)[C@@H](O)[C@H](O)[C@H]1O ?
### Response 2.05

### Prompt Could you share which pKi value was measured for COC(=O)N[C@]1(C(N)=O)O[C@H](CO)[C@@H](O)[C@H](O)[C@H]1O ?
### Response 4.8

### Prompt Could you share which pKi value was measured for NN1C(=O)N[C@@]2(O[C@@H](CO)[C@@H](O)[C@H](O)[C@@H]2O)C1=O ?
### Response 3.84

### Prompt Could you share which pKi value was measured for NC(=O)C1OC(CO)C(O)C(O)C1O (stereo in doubt; 2) ?
### Response 3.43
